Target: elAChE (electric eel AChE) (Electrophorus electricus)
Construct: purchased Sigma-Aldrich (Shanghai, PRC)
Assay: biochemical
Conditions: read-out: IC50(AChE)
Experimental: The inhibitory activities of the synthesized compounds on ChEs were evaluated utilizing elAChE and eqBChE. The ChE inhibition abilities of the compounds were determined using a modified version of Ellman’s assay. […] First, 25 μL aliquots of drug solutions at different concentrations were added to 200 μL of elAChE (0.04 U/mL) or eqBChE (0.1 U/mL) in a phosphate buffer (100 mM sodium phosphate buffer, pH 8), and the reaction system was pre-incubated at 37 °C for determined time periods. […]
pIC50: −log10 of the molar value.
readout-name: pIC50

Identify measured pIC50 associated with CCN(C)C(=O)Oc1cccc(C(O)CN2CCCCC2)c1 (stereo not shown)
< 4.00

* * *

Target: eqBChE (equine serum BChE) (Equus caballus, UniProt P81908)
Construct: BChE (equine serum BChE (eqBChE)); purchased Sigma-Aldrich (Shanghai, PRC); host or cells: equine serum
Sequence (P81908 whole entry): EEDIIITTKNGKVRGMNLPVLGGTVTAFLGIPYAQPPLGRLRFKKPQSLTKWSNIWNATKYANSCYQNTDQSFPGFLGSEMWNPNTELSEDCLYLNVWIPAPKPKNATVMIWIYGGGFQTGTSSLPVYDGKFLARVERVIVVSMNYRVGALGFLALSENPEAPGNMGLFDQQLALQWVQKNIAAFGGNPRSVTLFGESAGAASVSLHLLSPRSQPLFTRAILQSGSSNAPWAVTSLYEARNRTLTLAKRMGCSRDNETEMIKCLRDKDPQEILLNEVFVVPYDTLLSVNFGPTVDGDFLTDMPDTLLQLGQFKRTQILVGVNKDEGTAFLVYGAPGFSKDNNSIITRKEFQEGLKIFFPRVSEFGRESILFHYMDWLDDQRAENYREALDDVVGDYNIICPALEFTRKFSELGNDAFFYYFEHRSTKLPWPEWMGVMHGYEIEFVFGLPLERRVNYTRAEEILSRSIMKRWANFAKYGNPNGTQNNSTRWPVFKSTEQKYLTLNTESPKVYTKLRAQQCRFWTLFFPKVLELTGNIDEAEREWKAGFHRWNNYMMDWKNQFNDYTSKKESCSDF
Assay: Modified Ellman's assay, IC50 for eqBChE
Type: biochemical
Details: after pre-incubation with the enzyme for 60 min, 37 °C, pH 8; read-out: eqBChE IC50 Mean ± SD
Examples of compounds with documented IC50 follow.
Hey, just the number and the unit after it is fine.

A selection of reference data follows.
compound	IC50
C#Cc1cccc(NCC(O)c2cccc(OC(=O)N(C)CC)c2)c1 (stereo not shown) [MTR-12]	156 nM
CCN(C)C(=O)Oc1ccc(C(O)CNC(C)(C)C)cc1 (stereo not shown) [MTR-13]	8700 nM
CCN(C)C(=O)Oc1ccc(C(O)CN2CCCCC2)cc1 (stereo not shown) [MTR-15]	420 nM

Please examine the following record next.
Provide IC50, tested on eqBChE (equine serum BChE) (Equus caballus, UniProt P81908), for CCN(C)C(=O)Oc1cccc(C(O)CNC2CCCC2)c1 (stereo not shown) [MTR-5] .
74 nM

* * *

Target: elAChE (electric eel AChE) (Electrophorus electricus, UniProt O42275)
Construct: purchased Sigma-Aldrich (Shanghai, PRC)
Sequence (O42275 24-633): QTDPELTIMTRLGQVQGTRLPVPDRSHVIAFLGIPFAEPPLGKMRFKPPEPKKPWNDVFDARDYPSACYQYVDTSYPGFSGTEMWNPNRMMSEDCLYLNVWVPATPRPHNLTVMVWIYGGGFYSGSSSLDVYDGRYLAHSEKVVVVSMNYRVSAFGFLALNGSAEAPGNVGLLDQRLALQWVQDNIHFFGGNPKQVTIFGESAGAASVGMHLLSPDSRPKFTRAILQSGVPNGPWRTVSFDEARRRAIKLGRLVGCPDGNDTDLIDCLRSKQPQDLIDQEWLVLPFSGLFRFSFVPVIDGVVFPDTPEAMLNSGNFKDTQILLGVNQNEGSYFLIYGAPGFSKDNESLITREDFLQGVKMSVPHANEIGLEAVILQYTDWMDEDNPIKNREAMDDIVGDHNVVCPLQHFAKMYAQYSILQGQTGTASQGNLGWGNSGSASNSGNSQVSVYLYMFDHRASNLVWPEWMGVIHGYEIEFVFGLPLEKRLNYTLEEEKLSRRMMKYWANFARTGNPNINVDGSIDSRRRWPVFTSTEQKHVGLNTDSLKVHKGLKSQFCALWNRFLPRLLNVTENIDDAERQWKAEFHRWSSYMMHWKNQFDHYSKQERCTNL
Assay: biochemical
Details: elAChE IC50 Mean ± SD, after pre-incubation with the enzyme for 60 min, 37 °C, pH 8
pIC50: −log10 of the molar value.
Examples of compounds with documented pIC50 follow.

compound	val
CCN(C)C(=O)Oc1cccc(C(O)CNC(C)(C)CC)c1 (centres unmarked)	< 4.00

Please examine the following record next.
Identify measured pIC50 associated with CCN(C)C(=O)Oc1cccc(C(O)CNC(C)(C)C)c1 (centres unmarked)
< 4.00

* * *

Molecular target: elAChE (electric eel AChE) (Electrophorus electricus, UniProt O42275)
Construct: purchased Sigma-Aldrich (Shanghai, PRC)
Experiment: biochemical
Conditions: after pre-incubation with the enzyme for 60 min, 37 °C, pH 8; read-out: elAChE IC50 Mean ± SD
readout-name: IC50

A selection of reference data follows.
compound	IC50
CCN(C)C(=O)Oc1cccc(C(O)CN2CCCC2)c1 (stereo not shown) [MTR-7]	78.9 µM
CCN(C)C(=O)Oc1cccc(C(O)CN2CCCCC2)c1 (stereo not shown) [MTR-3]	> 100 µM
CCN(C)C(=O)Oc1cccc(C(O)CNc2ccc(I)cc2)c1 (stereo not shown) [MTR-9]	> 100 µM
CCN(C)C(=O)Oc1cccc(C(O)CNC2CCCC2)c1 (stereo not shown) [MTR-5]	92 µM
CCN(C)C(=O)Oc1ccc(C(O)CNC(C)(C)C)cc1 (stereo not shown) [MTR-13]	> 100 µM
CCN(C)C(=O)Oc1ccc(C(O)CN2CCCCC2)cc1 (stereo not shown) [MTR-15]	59 µM
CCN(C)C(=O)Oc1cccc(C(O)CNc2ccccc2)c1 (stereo not shown) [MTR-8]	> 100 µM
CCN(C)C(=O)Oc1cccc(C(O)CN2CCOCC2)c1 (stereo not shown) [MTR-6]	> 100 µM

Provide IC50, tested on elAChE (electric eel AChE) (Electrophorus electricus, UniProt O42275), for C#Cc1cccc(NCC(O)c2cccc(OC(=O)N(C)CC)c2)c1 (stereo not shown) [MTR-12] .
> 100 µM

Provide IC50, tested on elAChE (electric eel AChE) (Electrophorus electricus, UniProt O42275), for CCN(C)C(=O)Oc1cccc(C(O)CNc2ccc(F)cc2)c1 (stereo not shown) [MTR-10] .
> 100 µM
